- Tested on: COLO 205 colon
- assay: NCI-60 one-dose screen, 48 h (100 = growth as untreated, 0 = no growth, -100 = all killed)
- run.conditions: 10 µM unless noted
About 83,000 compounds went through this panel and 20% of them were active in at least one assay; those are over-represented in the sample as a whole.
measure.name: growth (%)
State just the number; it will be interpreted in %.

Field growth (entry N=c1c2c(-c3ccccc3)c(-c3ccccc3)oc2ncn1NC(=O)c1cccnc1 ) reads 115

Field growth (entry Cc1ccc(S(=O)(=O)OC[C@@]2(C)CC[C@]3(C)CC[C@]4(C)C(=C3C2)C=C[C@@H]2[C@@]3(C)CCCNC(C)(C)[C@@H]3CC[C@]24C)cc1 ) reads -78

Field growth (entry NS(=O)(=O)c1ccc(C(=O)N=Nc2c(O)[nH]c3c(F)cccc23)cc1 ) reads 106

Field growth (entry C=C1C(=O)O[C@H]2[C@H]1CC/C(CNS(=O)(=O)c1ccc3ccccc3c1)=C\CC[C@@]1(C)O[C@@H]21 ) reads -84.5

Field growth (entry COc1ccc(S(=O)(=O)Nc2cc(Sc3cccc4cccnc34)c(O)c3ccccc23)cc1 ) reads -60.2

Field growth (entry Cc1cc(N2CCN(CC(=O)Nc3ccc4c(ccn4Cc4ccccc4)c3)CC2)nc(N2CCCCCC2)n1 ) reads 30.6

Field growth (entry COc1nc2ccc(C)cc2cc1/C=[N+](\[O-])c1ccccc1 ) reads 96

Field growth (entry c1ccc(Cc2cccc[n+]2C(c2ccccc2)c2ccccc2)cc1 ) reads 24.4

Field growth (entry N=C(N)SCc1c2ccccc2c(CSC(=N)N)c2ccccc12 ) reads 66.1

Field growth (entry Cc1nc2sc(C(=O)Nc3cccc(Cl)c3C)c(N)c2cc1C(O)c1ccccc1 (stereo not given) ) reads -0.762

---

- Test system: NCI-H226 lung
- assay: NCI-60 one-dose screen, 48 h (100 = growth as untreated, 0 = no growth, -100 = all killed)
- run.conditions: 10 µM unless noted
Compounds without any hit were thinned out: in the full panel of roughly 83,000, 20% have a hit.
Exercise: for every item that follows, state its recorded growth.
State just the number; it will be interpreted in %.

Field growth (entry CCOC(=O)C1=C(C)N=C2SC=C(c3ccc(F)cc3)N2[C@H]1c1cn(-c2ccccc2)nc1-c1ccc(Cl)cc1 ) reads 96.4

Field growth (entry COc1ccc(-c2c[nH]c(C(=O)O)c2-c2cc(OC)c(OC)c(OC)c2)cc1 ) reads 88.9

Field growth (entry Cc1c(O)c(O)cc2c3c(oc12)CC(c1ccc2c(c1)OCO2)CC3=O (stereo not given) ) reads 81.2

Field growth (entry S=c1nc(CS)[nH]c2ccccc12 ) reads 87.4

Field growth (entry O=C1C=C(Nc2ccccc2)c2ncccc2C1=O ) reads -46.6

Field growth (entry COC1=CC(=O)C(OC)=C(O)C1=O ) reads 102

Field growth (entry NC(N)=NC(N)=NCCCc1ccco1 ) reads 111

Field growth (entry COC1=CC(c2ccc[nH]2)=N/C1=C\c1[nH]c(C)c(C(=O)Oc2ccccc2)c1C ) reads -39.8

Field growth (entry Cc1oc2c(Cc3ccc(NC(=O)c4ccc(Cl)cc4)cc3)ncnc2c1C(=O)NO ) reads 86.4

Field growth (entry COc1ccc(-c2csc(NC(=O)CN3CCN(CCO)CC3)n2)cc1NS(=O)(=O)c1cccc2c(N(C)C)cccc12 ) reads 92.5
